# Assay protocol: qHTS for Inhibitors of Inflammasome Signaling: IL-1-beta AlphaLISA Primary Screen
# Condition description: THP-1 LPS/ATP IL-1B secretion, 16 h; at 57.5 µM
Hit rate of the full screen: of about 360,000 compounds, about 17,000 (4.7%) were called active. Another 5% or so got no clear call; they are omitted. No stated cut-off is given here; in the data, active means activity change below about -50%; inconclusive means mostly about -30% to -49%; inactive means weaker than that. What follows is part of a selection rich in actives, with near analogues and random picks from the rest.
A correct response names exactly one class from T (active), F (inactive)

Ask | Tell me the assay call for CN(C(=O)COC(=O)c1cc(=O)[nH]c2ccccc12)C1CCCCC1 please.
Reply | F

Ask | Now try COc1ccc(NC(=O)C2(C)Cc3c(-c4ccc(C(N)=O)cc4)ccnc3O2)cc1 (stereo unspecified) .
Reply | F

Ask | Likewise for COc1ccccc1C(=O)COC(=O)CNS(=O)(=O)c1ccc(NC(C)=O)cc1 ?
Reply | F

Ask | Ok, now CC(CN1CCC(n2nccc2NC(=O)C2CCCC2)CC1)c1ccccc1 (stereo unspecified)
Reply | F

Ask | Entry to check: O=S1(=O)CC(N2CCN(CCO)CC2)CN1Cc1cn(Cc2ccc(Cl)cc2)nn1 (stereo unspecified)
Reply | F

Ask | Consider next the molecule COc1ccc(C2CC(c3cccs3)=NN2C(=O)CSc2nnc(N)s2)cc1OC (stereo unspecified) in the same way.
Reply | T

Ask | Next record, please: CN1CCN(C(=O)c2ccc(-c3ccc(Br)cc3)o2)CC1
Reply | T

Ask | What about this molecule? CN(C)S(=O)(=O)Oc1ccccc1C(=O)Nc1ccccc1Cl
Reply | F

Ask | What about this molecule? CC(=O)N(O)CCCCCNC(=O)CCC(=O)N(O)CCCCCNC(=O)CCC(=O)N(O)CCCCCNC(=O)CCC(=O)O
Reply | F

Ask | Here is the next molecule: Cn1nc(N)c2ncc(C(Cl)(Cl)Cl)nc21
Reply | F

Ask | Let us now turn to O=C(Nc1ccnn1C1CCN(C/C=C/c2ccc(F)cc2)CC1)C1CCCC1
Reply | T

Ask | Same question, CCOCCC(=O)Nc1ccc2c(c1)c(=O)n(C)n2-c1ccc2ccccc2c1 this time
Reply | F

Ask | What do we get for Cc1c(NC(=O)Nc2ccccc2Cl)sc(=S)n1C ?
Reply | F

Ask | Next record, please: Cc1nn(C)c(Cl)c1CN1CCC(n2nccc2NC(=O)C2CCCC2)CC1
Reply | F

Ask | Follow-up item: CC1CCN(C(=O)COC(=O)c2cc(S(=O)(=O)N3CCOCC3)ccc2Cl)CC1
Reply | F

Ask | Also check COc1ccc(C2CC(c3cccs3)=NN2C(=O)CSc2nncs2)cc1OC (stereo unspecified)
Reply | F

Ask | Cc1cc(C)n2c(Nc3c(C)cccc3C)c(CCc3ccccc3)nc2n1 ?
Reply | F

Ask | Would you mind doing O=C(c1ccc(OC2CCN(Cc3ccccn3)CC2)cc1)N1CCCCCC1 as well?
Reply | F

Ask | Request: C=CCCC(=O)N1C[C@H]2CON(C)[C@H]2C[C@H]1c1cccc(Nc2ccccc2)c1
Reply | F

Ask | Param item: O=C(Nc1ccc(F)cc1)C(CCc1ccccc1)N1CCN(CC(=O)N2CCCC2)CC1 (stereo unspecified)
Reply | F

Ask | Similarly, Cc1ccc(S(=O)(=O)N2CCC(C(=O)N3CCCCCCC3)CC2)cc1 ?
Reply | F
